Entries annotated with measured growth
- Test system: OVCAR-5 ovarian
- PROTOCOL NOTES: NCI-60 one-dose screen, 48 h (100 = growth as untreated, 0 = no growth, -100 = all killed)
- CONDITION PARAMETERS: 10 µM unless noted
The panel holds about 83,000 compounds, 20% with a hit somewhere; the sample as a whole holds those more often. Calls of active or inactive are those of the source. Rule for the calls: active = growth percent below 10; inactive = the rest.

Recorded results for 5 compounds are shown here.
C[C@]12CCc3c(ccc4cc(O)ccc34)[C@@H]1C[C@H](O)[C@@H]2O: 104% (inactive)
COc1cc(/C=N/NC(=O)CCN2c3ccccc3Sc3ccccc32)cc(OC)c1OC: 89% (inactive)
CN1C(=O)N(C)C2(c3ccccc3)N(CC(=O)Nc3ccccc3O)C(=O)NC12c1ccccc1 (stereo not drawn): 104% (inactive)
CCN1CCN(C(=O)[C@]23CC[C@@H](C)[C@H](C)[C@@H]2C2=CC[C@@H]4[C@@]5(C)CCC(=O)C(C)(C)[C@@H]5CC[C@@]4(C)[C@]2(C)CC3)CC1: -3.73% (active)
Cc1nn(-c2nc(-c3cc4ccccc4oc3=O)cs2)c(C)c1N=Nc1ccccc1: 106% (inactive)

(Q) What measured growth goes with COc1cc(/C=C2/C=C(c3ccc(C(C)(C)C)cc3)N(CCc3ccc(S(N)(=O)=O)cc3)C2=O)cc(OC)c1OC ?
(A) 91.4% (inactive)

(Q) Item: CCCCCCCCCCCCCCCCCCOc1cccc(CC(=O)OCC[N+](CC)(CC)CC)c1
(A) 71.3% (inactive)

(Q) Check C=C1CCC2C3(C)COC(c4ccc(NC(C)=O)cc4)OC3CCC2(C)C1C/C=C1/C(=O)OCC1O (stereo not drawn) too.
(A) 74.9% (inactive)
